- experimental_system: human 17β-HSD1 (Homo sapiens, UniProt P14061)
- Construct: expressed in transfected cells; host or cells: HEK-293 (transient calcium phosphate transfection; cell lysates used)
- Sequence (P14061 whole entry): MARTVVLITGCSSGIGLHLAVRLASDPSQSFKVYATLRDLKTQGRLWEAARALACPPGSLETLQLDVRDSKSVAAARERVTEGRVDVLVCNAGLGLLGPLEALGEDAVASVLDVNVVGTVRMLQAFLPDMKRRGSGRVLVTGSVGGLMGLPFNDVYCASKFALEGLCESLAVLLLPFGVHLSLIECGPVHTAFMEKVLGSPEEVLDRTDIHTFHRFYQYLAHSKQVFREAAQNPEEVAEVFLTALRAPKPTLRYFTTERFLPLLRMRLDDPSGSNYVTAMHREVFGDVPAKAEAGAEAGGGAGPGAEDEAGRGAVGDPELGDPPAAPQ
- protocol_details: 17β-HSD1 reductase activity (estrone to estradiol) in lysates of transfected HEK-293 cells
- Format: biochemical
measure: pIC50
Answers are plain numbers, as −log10 of the molar value.

Exercise: So what does the record say about pIC50 for `S=C(S)NCCNC(=S)S` ?
Solution: 4.62

---

- experimental_system: human 17β-HSD1 (Homo sapiens)
- Construct: expressed in transfected cells; host or cells: HEK-293 (transient calcium phosphate transfection; cell lysates used)
- protocol_details: 17β-HSD1 reductase activity (estrone to estradiol) in lysates of transfected HEK-293 cells
- Assay type: biochemical
- applied_conditions: simultaneous incubation of lysates with 200 nM estrone and inhibitor; 400 μM NADPH, 10 min, 37°C; read-out: IC50
measure: IC50 (µM)
One number for each entry, in µM.

Completed entries (count: 2):
compound | u | measured_value
CN(C)C(=S)SSC(=S)N(C)C | µM | 21
CCN(CC)C(=S)SSC(=S)N(CC)CC | µM | 8

Now look at this entry.
Exercise: IC50 of CCN1C(=O)C=CC1=O [NEM, N-ethylmaleimide] on human 17β-HSD1 (Homo sapiens)?
Solution: 22
